Data origin: patent US20250297032A1

Target: T1, human FAPα-His tag (Sino biological) (human, UniProt Q12884 26-760)
T1 construct: Bought protein; also called human FAPα-His protein; not shown: His tag
T1 sequence (looked up): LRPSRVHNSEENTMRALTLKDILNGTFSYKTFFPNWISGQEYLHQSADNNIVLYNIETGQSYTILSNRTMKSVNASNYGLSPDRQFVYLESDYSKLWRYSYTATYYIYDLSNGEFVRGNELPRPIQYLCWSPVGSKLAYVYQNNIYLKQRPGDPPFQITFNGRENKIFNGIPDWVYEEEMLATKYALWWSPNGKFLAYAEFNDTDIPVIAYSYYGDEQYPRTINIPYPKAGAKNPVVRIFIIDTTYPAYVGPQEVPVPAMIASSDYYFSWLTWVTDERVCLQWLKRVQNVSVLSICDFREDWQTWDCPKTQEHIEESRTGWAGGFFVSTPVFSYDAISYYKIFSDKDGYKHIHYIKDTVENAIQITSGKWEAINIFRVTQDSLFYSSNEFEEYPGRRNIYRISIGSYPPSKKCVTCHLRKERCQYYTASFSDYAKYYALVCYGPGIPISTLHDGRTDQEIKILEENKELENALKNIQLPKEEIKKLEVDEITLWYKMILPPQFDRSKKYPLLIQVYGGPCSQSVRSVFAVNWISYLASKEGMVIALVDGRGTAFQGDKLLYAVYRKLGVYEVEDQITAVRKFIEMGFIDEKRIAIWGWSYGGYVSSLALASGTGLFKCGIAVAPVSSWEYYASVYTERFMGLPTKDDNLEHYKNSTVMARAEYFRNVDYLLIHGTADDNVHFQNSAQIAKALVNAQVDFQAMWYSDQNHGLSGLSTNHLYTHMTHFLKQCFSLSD
Test: competitive ELISA on coated human FAPα; competitor (detected): FAP-I37-Bio
outcomeMeasure: OD 450 nm (OD 450 nm)
Enter your answer as a number in OD 450 nm; do not include the unit.

Sample records with OD 450 nm:
G14 (antibody, V domains shown, Full human antibody from a Fab phage library; Tested as a mAb (detected with anti-human IgG, captured on Protein A); also called FAP-G14; FAP-G14-Bio (biotin-conjugated form)) VH: QVQLLESGGGVVQPGRSLRLSCAASGFTFSSYAMHWVRQAPGKGLEWVAFISHDGNRNSYADSVRGRFTISRDNSKNTLYLQMNSLRAEDTAVYYCARDLGYYNGFSYWGQGTLVTVSA VL: DIVMTQSPSSVSASVGDRVTITCRASQGISSWLAWYQQKPGKAPKLLIYAASSLQSGVPSRFSGSGSGTDFTLTISSLQPEDFATYYCQQANSFPPTFGPGTKVDIK    0.457
I37 (antibody, V domains shown, Tested as a mAb; also called FAP-I37) VH: QLQLVESGGGLVQPGGSLRLSCAASGFTFSSYAMSWVRQAPGKGLEWVSAISGSGGSTYYADSVKGRFTISRDNSKNTLYLQMNSLRAEDTAVYYCARDKPWGGSFDYWGQGTLVTVSA VL: DIQLTQSPSSLSASVGDRVTITCRASQGISSWLAWYQQKPGKAPKLLIYAASSLQSGVPSRFSGSGSGTDFTLTISSLQPEDFATYYCQQANSFPVTFGPGTKVDIK    0.602
G52 (antibody, V domains shown, Tested as a mAb; also called FAP-G52; FAP-G52-Bio (biotin-conjugated form)) VH: EVQLLESGGDLVQPGGSLRLSCAASGFTFSSYAMSWVRQAPGKGLEWVSGISNGGDSIAYADSVKGRFTVFRDNAKNTLYLQMNSLRAEDTAIYYCARGNYYAHDDWGQGTLVTVSA VL: DIQLTQSPSSVSASVGDRVTITCRASQGVGSWLAWYQQKPGKPPKLLIYAASSLQSGVPSRFSGSGSGTDFTLTISSLQPEDFATYYCQQANSFPLTFGGGTKVEIK    0.399

Okay, next one:
# OD 450 nm (binder: J40 (antibody, V domains shown, Tested as a mAb; also called FAP-J40; FAP-J40-Bio (biotin-conjugated form)) VH: EVQLLESGGGLVQPGGSLRLSCAASGFTFSSYAMSWVRQAPGKGLEWVSAISGSGGSTYYADSVKGRFTISRDNSKNTLYLQMNSLRTDDTAVYYCARDLTTSTGWESWGQGTLVTVSA VL: NIQMTQSPSSVSASVGDRVTITCRASQGISSWLAWYQQKPGKAPKLLIYAASSLQSGVPSRFSGSGSGTDFTLTISSLQPEDFATYYCQQANSFPPTFGQGTKLEIK ) is 0.435
